- target: T1, TRCW5 antigen (CD3δε-Fc-Avi) (biotinylated (site not stated))
- T1 construct: also called recombinant CD3
- T1 sequence (chain, as listed by the source mutant limits assumed): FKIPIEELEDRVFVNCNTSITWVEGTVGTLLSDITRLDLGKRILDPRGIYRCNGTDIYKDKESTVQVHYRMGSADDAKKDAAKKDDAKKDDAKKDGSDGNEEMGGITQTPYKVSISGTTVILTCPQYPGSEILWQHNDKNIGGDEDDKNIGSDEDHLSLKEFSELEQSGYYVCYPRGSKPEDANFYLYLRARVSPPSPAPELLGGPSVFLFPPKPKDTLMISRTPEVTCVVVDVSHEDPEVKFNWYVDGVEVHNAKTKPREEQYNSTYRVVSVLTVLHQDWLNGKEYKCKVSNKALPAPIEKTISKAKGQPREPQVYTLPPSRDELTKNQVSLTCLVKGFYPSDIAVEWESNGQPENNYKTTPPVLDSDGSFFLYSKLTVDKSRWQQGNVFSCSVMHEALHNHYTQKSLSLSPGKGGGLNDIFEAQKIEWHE
- assay.details: ELISA after heat
metric.name: % Retained 55° C. (%)
Answers are plain numbers, in %.

These solved cases illustrate the format of a correct answer.
CD3B2077 (scFv) scFv: QVQLVQSGAEVKKPGSSVKVSCKASGYTFTRSTMHWVRQAPGQGLEWIGYINPSSAYTNYAQKFQGRVTLTADKSTSTAYMELSSLRSEDTAVYYCASPQVHYDYNGFPYWGQGTLVTVSSGGSEGKSSGSGSESKSTGGSEIVLTQSPATLSASPGERVTLSCSASSSVSYMNWYQQKPGTAPRRWIYDSSKLASGVPARFSGSGSGRDYTLTISSLEPEDFAVYYCQQWSRNPPTFGGGTKVEIK ... 106
CD3B2030 (scFv) scFv: QVQLVQSGAEVKKPGSSVKVSCKASGYTFTRSTMHWVKQAPGQGLEWIGYINPSSAYTNYNQKFQGRVTLTADKSTSTAYMELSSLRSEDTAVYYCASPQVHYDYNGFPYWGQGTLVTVSSGGSEGKSSGSGSESKSTGGSEIVLTQSPATLSASPGERVTLSCSASSSVSYMNWYQQKPGQAPRRWIYDSSKLASGVPARFSGSGSGRDYTLTISSLEPEDFAVYYCQQWSRNPPTFGGGTKVEIK ... 106

Please find the next binder below.
Supply reported % Retained 55° C. belonging to this binder: CD3B2037 (scFv) scFv: QVQLVQSGAEVKKPGSSVKVSCKASGYTFTRSTMHWVKQAPGQGLEWMGYINPSSAYTNYAQKFQGRVTLTADKSTSTAYMELSSLRSEDTAVYYCASPQVHYDYNGFPYWGQGTLVTVSSGGSEGKSSGSGSESKSTGGSEIVLTQSPATLSASPGERVTLSCSASSSVSYMNWYQQKPGTSPRRLIYDSSKLASGVPARFSGSGSGRDYTLTISSLEPEDFAVYYCQQWSRNPPTFGGGTKVEIK
102
